// data source = ChEMBL document CHEMBL1147233

Catalogue of compounds with associated IC50
- test system: Human immunodeficiency virus type 1 integrase (Human immunodeficiency virus 1)
- Sequence (Q7ZJM1 whole entry): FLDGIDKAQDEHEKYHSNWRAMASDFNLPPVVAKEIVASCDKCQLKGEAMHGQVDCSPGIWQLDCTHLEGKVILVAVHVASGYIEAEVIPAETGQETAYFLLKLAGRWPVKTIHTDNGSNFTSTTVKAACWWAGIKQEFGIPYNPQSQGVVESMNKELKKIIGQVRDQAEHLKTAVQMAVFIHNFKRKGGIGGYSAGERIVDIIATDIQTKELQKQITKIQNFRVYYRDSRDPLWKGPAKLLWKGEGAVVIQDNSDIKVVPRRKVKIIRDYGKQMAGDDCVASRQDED
- protocol text: Inhibition of recombinant HIV1 integrase using preprocessed donor DNA treated after washing excess enzyme by strand transfer assay
readout label: IC50

compound_string=C=C(CC[C@@H](C)[C@H]1CC=C2C3=C([C@@H](O)[C@H](OC(C)=O)[C@@]21C)[C@@]1(C)C[C@@H](OC(=O)c2ccccc2)[C@H](O)C(C)(C)[C@@H]1CC3)C(C)C test_system="Human immunodeficiency virus type 1 integrase (Human immunodeficiency virus 1)" result="> 80 µM"
compound_string=C=C(CC[C@@H](C)[C@H]1CC=C2C3=C(C(=O)[C@H](OC(C)=O)[C@@]21C)[C@@]1(C)C[C@@H](O)[C@H](O)C(C)(C)[C@@H]1CC3)C(C)C test_system="Human immunodeficiency virus type 1 integrase (Human immunodeficiency virus 1)" result="> 100 µM"
compound_string=C=C(CC[C@@H](C)[C@H]1CC=C2C3=C([C@@H](O)[C@H](OC(C)=O)[C@@]21C)[C@@]1(C)C[C@@H](OC(=O)c2ccccc2)[C@H](OC(=O)c2ccccc2)C(C)(C)[C@@H]1CC3)C(C)C test_system="Human immunodeficiency virus type 1 integrase (Human immunodeficiency virus 1)" result="> 69 µM"
